Target: Bcl-2-like protein 10 (Homo sapiens) (UniProt Q9HD36)
Sequence (Q9HD36 whole entry, looked up): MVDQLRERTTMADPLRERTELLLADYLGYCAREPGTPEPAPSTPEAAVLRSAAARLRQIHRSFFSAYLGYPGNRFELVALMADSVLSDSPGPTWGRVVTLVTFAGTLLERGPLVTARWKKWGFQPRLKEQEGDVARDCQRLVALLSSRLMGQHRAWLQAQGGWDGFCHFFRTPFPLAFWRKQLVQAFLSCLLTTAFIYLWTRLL
Assay: TR3 peptide-Bcl-B binding displacers, biochemical primary FP assay, phenotype converters (AID 1240);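 also: 0% = Bcl-B with tracer peptide and DMSO and 100% = tracer peptide lacking Bcl-B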
Details: GST-Bcl-B / FITC-TR3 peptide fluorescence polarization; stronger effect = higher value; compound at 3.75 mg/L
Out of some 50,000 compounds screened, about 800 (1.6%) showed an effect of 50% or more. This is one part of a sample in which strong results are shown more often than they occur.

MOLECULE | UNIT NAME | displacement
N#C/C(=C\c1ccc(Sc2ccccc2)o1)c1ccccc1 | % | -14.9
O=C1NC(=O)/C(=C\c2ccc(Oc3ccc(C(F)(F)F)cc3[N+](=O)[O-])c(Cl)c2)S1 | % | 5.5
COc1ccc(/C=C2\C=C(c3ccc(Cl)cc3)OC2=O)c(OC)c1 | % | 25.2
O=C(NC1CCCCC1)c1ccc2nc3ccccc3nc2c1 | % | 81.5
Cc1cccc(/C=C2/SC(=S)N(Cc3ccccc3)C2=O)c1 | % | 13.4
CC(=O)Oc1ccccc1/C=C1\C=C(c2ccc(Br)cc2)OC1=O | % | 12
CCOC(=O)c1c(NC(=O)CC2SC(N)=NC2=O)sc2c1CCCC2 (stereo not drawn) | % | 6.3
COc1ccc(CC(=O)O/N=C(\N)Cc2ccc([N+](=O)[O-])cc2)cc1OC | % | 14.2
O=c1/c(=C\c2ccc(OS(=O)(=O)c3cccc([N+](=O)[O-])c3)cc2)sc2nc3ccccc3n12 | % | -6.5
O=[N+]([O-])c1ccc(-c2noc(-c3ccccc3Br)n2)cc1 | % | 4.3
COc1ccc(/C=C2/C=C(c3ccccc3)OC2=O)c(OC)c1 | % | -30
O=C(NC1CCCCC1)c1ccc(Cl)c(Cl)c1 | % | 3.3
CC(=O)Oc1ccccc1/C=C1\C=C(c2ccc(C)cc2)OC1=O | % | -0.2
COc1ccc2c(c1OC)C(=O)OC2Nc1ccccc1Br (stereo not drawn) | % | -5.8
COc1ccc(C2=C/C(=C/c3ccccc3OC)C(=O)O2)cc1 | % | 85.1
O=C(NC1CCCCCC1)c1cccc(Cl)c1 | % | 4.5
O=S(=O)(c1cccc2ccccc12)n1cnc2ccccc21 | % | 6.3
O=c1/c(=C\c2cccc(OS(=O)(=O)c3cccc([N+](=O)[O-])c3)c2)sc2nc3ccccc3n12 | % | 101
N#CC(C#N)=C/C(=C/C(C#N)C#N)c1ccccc1 | % | 109
Clc1ccc(OCCCN2CCCCC2)cc1 | % | -10
COc1ccccc1/C=C1\C=C(c2ccc(Cl)cc2)OC1=O | % | 9.6
COc1ccc(OC)c(/C=C2/C=C(c3ccccc3)OC2=O)c1 | % | -24.5
Cc1ccc(-c2csc(NC(=O)c3sc4ccccc4c3Cl)n2)c(C)c1 | % | 2.6

====

Molecular target: Bcl-2-like protein 10 (Homo sapiens)
Experiment: TR3 peptide-Bcl-B binding displacers, biochemical primary FP assay, phenotype converters (AID 1240);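 also: 0% = Bcl-B with tracer peptide and DMSO and 100% = tracer peptide lacking Bcl-B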
Conditions: GST-Bcl-B / FITC-TR3 peptide fluorescence polarization; stronger effect = higher value; compound at 3.75 mg/L
The campaign covered roughly 50,000 compounds. About 800 (1.6%) showed an effect of 50% or more. This excerpt belongs to a sample that is enriched for strong results.

CHEM SMILES | TARGET ENTITY | UNIT NAME | displacement
Cn1nnnc1SCC(=O)Nc1ccc2c(c1)oc1ccccc12 | Bcl-2-like protein 10 (Homo sapiens) | % | 87
COc1ccc(/C=C(\C#N)c2ccc([N+](=O)[O-])cc2)c(OC)c1 | Bcl-2-like protein 10 (Homo sapiens) | % | 110
Cc1ccc(NC(=O)c2cnn(-c3ccccc3)c2NC(=O)c2ccccc2Cl)cc1C | Bcl-2-like protein 10 (Homo sapiens) | % | 3.3
O=C(/C=C/c1ccc([N+](=O)[O-])cc1)C1C(=O)c2ccccc2C1=O | Bcl-2-like protein 10 (Homo sapiens) | % | -6.3
O=C(/C=C/c1ccc(S(=O)(=O)Nc2ccccc2)cc1)C1C(=O)c2ccccc2C1=O | Bcl-2-like protein 10 (Homo sapiens) | % | 31.1
COc1ccc(C(=O)Nc2ccccc2C(=O)NCCCn2ccnc2)cc1 | Bcl-2-like protein 10 (Homo sapiens) | % | 11.9
Cc1nnc(SCC(=O)Nc2ccc3c(c2)oc2ccccc23)s1 | Bcl-2-like protein 10 (Homo sapiens) | % | -8.5
O=C(Cn1c(-c2ccccc2)c[n+]2ccsc12)c1ccc([N+](=O)[O-])cc1 | Bcl-2-like protein 10 (Homo sapiens) | % | 13.8
COc1ccc(/C=C\C(=O)C2C(=O)c3ccccc3C2=O)cc1 | Bcl-2-like protein 10 (Homo sapiens) | % | 122
CCN(CC)C(=O)c1cnn(-c2ccccc2)c1NC(=O)c1ccccc1Cl | Bcl-2-like protein 10 (Homo sapiens) | % | 9.1

====

Target: Bcl-2-like protein 10 (Homo sapiens)
Experiment: TR3 peptide-Bcl-B binding displacers, biochemical primary FP assay, phenotype converters (AID 1240);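 also: 0% = Bcl-B with tracer peptide and DMSO and 100% = tracer peptide lacking Bcl-B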
Conditions: GST-Bcl-B / FITC-TR3 peptide fluorescence polarization; stronger effect = higher value; compound at 3.75 mg/L
Hit rate of the full screen: of about 50,000 compounds, about 800 (1.6%) showed an effect of 50% or more. Only a selection was taken, and strong results are over-represented in it overall.

MOLECULE | UNIT NAME | displacement
O=C(O)CCCCCN1C(=O)C(O)=C(C(=O)/C=C/c2ccccc2)C1c1ccccc1Cl (stereo unspecified) | % | -7.2
CCOC(=O)c1cccc(NC(=O)COc2ccc([N+](=O)[O-])cc2)c1 | % | 8.1
CC(=O)Nc1ccc(I)cc1C | % | -5
c1ccc(-c2cc(-c3cc(-c4ccccc4)on3)no2)cc1 | % | 2.6
CC(=O)n1cc(/C=C2\Sc3ccccc3C2=O)c(-c2ccccc2)n1 | % | 145
Brc1ccc(C=NN2CCN(Cc3ccccc3)CC2)cc1 | % | -17.6
O=C1/C(=C/c2c3ccccc3nc3ccccc23)Sc2ccccc21 | % | -0.5
Cc1ccc(NC(=O)CN(c2ccc(Oc3ccccc3)cc2)S(C)(=O)=O)cc1 | % | 5.1
CCCC(C)NC(=O)c1ccc(Cl)c([N+](=O)[O-])c1 (stereo unspecified) | % | -0.1
Cc1cc(-n2c(C)cc(C=O)c2C)ccc1I | % | -15.5
CCOC(=O)C1=C(C)N=c2s/c(=C\c3ccc(NC(C)=O)cc3)c(=O)n2C1c1ccc(OC)c(OC)c1 (stereo unspecified) | % | 88.9

====

Target: Bcl-2-like protein 10 (Homo sapiens)
Test: TR3 peptide-Bcl-B binding displacers, biochemical primary FP assay, phenotype converters (AID 1240);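 also: 0% = Bcl-B with tracer peptide and DMSO and 100% = tracer peptide lacking Bcl-B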
Conditions: GST-Bcl-B / FITC-TR3 peptide fluorescence polarization; stronger effect = higher value; compound at 3.75 mg/L
The whole screen tested about 50,000 compounds, of which about 800 (1.6%) showed an effect of 50% or more. For the sample, strong results were picked, then their nearest neighbours and some compounds at random.

COMPOUND | UNIT NAME | displacement
COc1ccccc1/C=c1\sc2nc(-c3ccc(C)cc3)nn2c1=O | % | 61.7
COc1ccc(/C=c2\sc3nc(-c4ccccc4)nn3c2=O)cc1 | % | 77.5
COC(=O)c1ccc(/C=c2\sc3nc(-c4ccc(C)cc4)nn3c2=O)cc1 | % | 10.7
COc1ccc(/C=c2/sc3nc(-c4ccc(C(C)(C)C)cc4)nn3c2=O)cc1 | % | 11.3
CCCCc1ccc(-c2csc(/C(C#N)=C/c3ccc(O)c(OC)c3)n2)cc1 | % | 2.4
Cc1cccc(OCCOc2ccccc2/C=C2/SC(=S)N(C)C2=O)c1 | % | -0.4
COc1ccccc1/C=c1/sc2nc(-c3ccc(Cl)cc3Cl)nn2c1=O | % | 7.3
COc1ccc(/C=c2\sc3nnc(-c4ccccc4)n3c2=O)c(OC)c1 | % | 28
CCOc1ccc(N2C(=O)CC(SC(=NC)Nc3ccc4c(c3)OCO4)C2=O)cc1 (stereo not given) | % | -6.7
COc1ccc(/C=c2\sc3nnc(-c4ccc(C)cc4)n3c2=O)c(OC)c1 | % | 73.8

====

Quick reference: displacement of the listed items.
Target: Bcl-2-like protein 10 (Homo sapiens) (UniProt Q9HD36)
Assay: TR3 peptide-Bcl-B binding displacers, biochemical primary FP assay, phenotype converters (AID 1240);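 also: 0% = Bcl-B with tracer peptide and DMSO and 100% = tracer peptide lacking Bcl-B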
Settings: GST-Bcl-B / FITC-TR3 peptide fluorescence polarization; stronger effect = higher value; compound at 3.75 mg/L
About 800 (1.6%) of roughly 50,000 compounds showed an effect of 50% or more. Many of the other results were omitted from the sample, so strong results are more common in it than they were.

COMPOUND | displacement (%)
CC1=C/C(=N/OS(=O)(=O)c2ccccc2)C=CC1=O | 28.6
O=C(N/N=C/c1ccccc1Cl)c1ccccn1 | -9.6
O=C(NC(=S)Nc1ccc(Cl)c(-c2nc3ccccc3s2)c1)c1ccco1 | 5.8
O=C(Cc1ccc(Br)cc1)Nc1cc([N+](=O)[O-])ccc1Cl | 4.4
CCOc1cc(/C=C2\SC(=S)N(C)C2=O)ccc1O | -6.7
COc1cc(/C=c2\sc3nc4ccccc4n3c2=O)cc(Br)c1OCc1ccccc1F | 13.9
CCC(c1ccccc1)c1nnc(NC(=O)Nc2cccc(Cl)c2)s1 (stereo not drawn) | -0.8
O=C1c2ccc3c4c(ccc(c24)C(=O)N1Cc1ccco1)CC3 | 9.5
CCOc1ccc(C(=O)NCc2cccs2)cc1OCC | -0.9
CCOC(=O)c1ccc(NC(=O)c2cc(-c3cccs3)nc3ccccc23)cc1 | 4.7
CN(C)c1cccc2c(C(NS(=O)(=O)c3ccccc3)C(Cl)(Cl)Cl)ccc(N(C)C)c12 (stereo not drawn) | 144
CCOc1ccccc1C1Nc2ccccc2NC2=C1C(=O)CC(c1ccc(OC)c(OC)c1)C2 (stereo not drawn) | 11.3
Fc1ccccc1-c1nc(-c2ccc(Br)cc2)no1 | 4.3
CCOc1ccccc1/C=C/C(=O)c1cccs1 | -11.9
CCc1nnc(NC(=O)C2CCCC2)s1 | -7.8
COc1cccc(Nc2nc(-c3ccc(S(=O)(=O)N4CCOCC4)cc3)cs2)c1 | 10.4
CN(C)N1C(=O)c2ccc3c4c(ccc(c24)C1=O)CC3 | 6.4
Cc1ccc(OCC(=O)NCc2ccco2)c(C)c1 | -2.9
COc1ccc(-n2nc3cc(C)c(NC(=O)c4cc(Cl)ccc4OC)cc3n2)cc1 | -5.3
COC(=O)C(NS(=O)(=O)c1ccccc1)C(C)C (stereo not drawn) | -12
Cc1ccc(NC(=O)c2cccc(C(=O)Nc3ccc(C)c(C)c3)c2)cc1C | -0.1
COc1cc(C=O)ccc1Oc1ccc([N+](=O)[O-])cc1 | 5
COc1sc(SC)cc1/C=N/NC(=O)C(NC(=O)c1ccccc1)c1n[nH]c(=O)c2ccccc12 (stereo not drawn) | -7.7
